# subject_of_test: Cytochrome P450 2D6 (Homo sapiens, UniProt P10635)
# Sequence (P10635 whole entry): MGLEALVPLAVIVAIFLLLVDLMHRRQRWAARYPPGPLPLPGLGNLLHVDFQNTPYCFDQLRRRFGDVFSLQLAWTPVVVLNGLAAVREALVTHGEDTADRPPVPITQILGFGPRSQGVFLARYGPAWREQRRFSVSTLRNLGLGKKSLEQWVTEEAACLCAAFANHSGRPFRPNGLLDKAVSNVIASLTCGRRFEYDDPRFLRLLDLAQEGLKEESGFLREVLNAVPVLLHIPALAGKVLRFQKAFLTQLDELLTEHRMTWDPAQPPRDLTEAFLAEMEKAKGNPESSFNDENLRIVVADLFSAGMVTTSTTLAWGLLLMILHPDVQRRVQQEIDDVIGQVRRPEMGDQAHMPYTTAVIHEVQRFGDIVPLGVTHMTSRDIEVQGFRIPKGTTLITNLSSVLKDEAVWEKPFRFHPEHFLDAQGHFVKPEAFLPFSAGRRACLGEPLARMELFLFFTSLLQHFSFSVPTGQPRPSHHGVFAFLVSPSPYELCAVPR
# method_notes: Inhibition of human recombinant CYP2D6 after 30 mins by fluorescence assay
metric: pIC50
Scale: negative log10 of molar concentration, which is what pIC50 denotes.

q: Requested read-out: pIC50. Entry: CC/C(=C(/c1ccc(O)cc1)c1ccc(OCCN)cc1)c1ccc(O)cc1 (mixture of isomers)
a: 5.44

----------
# subject_of_test: Cytochrome P450 3A5 (Homo sapiens)
# Sequence (P20815 whole entry): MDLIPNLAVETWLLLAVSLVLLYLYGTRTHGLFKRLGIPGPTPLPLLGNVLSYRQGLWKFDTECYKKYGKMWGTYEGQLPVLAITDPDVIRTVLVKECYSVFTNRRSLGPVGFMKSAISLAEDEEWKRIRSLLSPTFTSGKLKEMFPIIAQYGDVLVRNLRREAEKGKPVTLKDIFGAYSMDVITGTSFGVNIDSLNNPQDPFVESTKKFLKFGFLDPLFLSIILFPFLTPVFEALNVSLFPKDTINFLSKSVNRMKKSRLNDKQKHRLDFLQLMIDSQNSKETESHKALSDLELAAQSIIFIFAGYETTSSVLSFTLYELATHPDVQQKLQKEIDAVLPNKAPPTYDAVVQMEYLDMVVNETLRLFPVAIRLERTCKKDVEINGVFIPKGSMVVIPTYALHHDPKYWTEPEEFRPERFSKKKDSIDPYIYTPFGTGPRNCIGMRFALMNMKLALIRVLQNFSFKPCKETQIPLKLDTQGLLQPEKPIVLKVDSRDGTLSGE
# method_notes: Inhibition of human recombinant CYP3A5 assessed as metabolism of 7-benzyloxy-4-trifluoromethylcoumarin to HFC after 30 mins by fluorescence assay
metric: pKi
Scale: negative log10 of molar concentration, which is what pKi denotes.

compound="CC/C(=C(/c1ccc(O)cc1)c1ccc(OCCN)cc1)c1ccc(O)cc1 (mixture of isomers)" numeric_result=6.07

Turning now to a further compound:
q: Please state recorded pKi (tested on Cytochrome P450 3A5 (Homo sapiens)) of CC/C(=C(/c1ccc(O)cc1)c1ccc(OCCN)cc1)c1ccccc1 (mixture of isomers)
a: 6.08

Data origin, for the record: ChEMBL document CHEMBL3421623
